Test system human CYP2D6 (Homo sapiens, UniProt P10635), CYP2D6 AC50 (half-maximal activity concentration) listed for each of the molecules.

[
  {
    "molecule": "C/C=C1\\C(=O)C[C@H]2[C@@H]3CCC4=CC(=O)CC[C@]4(C)[C@H]3CC[C@]12C",
    "systemUnderTest": "human CYP2D6 (Homo sapiens, UniProt P10635)",
    "observedResult": "Inactive"
  },
  {
    "molecule": "CC(C)COC(=O)CCCCC(=O)OCC(C)C [Diisobutyl adipate]",
    "systemUnderTest": "human CYP2D6 (Homo sapiens, UniProt P10635)",
    "observedResult": "Inactive"
  },
  {
    "molecule": "CC(=O)OC(c1ccccc1)C(Cl)(Cl)Cl (stereo not drawn) [2,2,2-Trichloro-1-phenylethyl acetate]",
    "systemUnderTest": "human CYP2D6 (Homo sapiens, UniProt P10635)",
    "observedResult": "Inactive"
  },
  {
    "molecule": "C[C@]12CCC(=O)C=C1C=C[C@@H]1[C@@H]2CC[C@@]2(C)[C@H]1CC[C@@]21CCC(=O)O1",
    "systemUnderTest": "human CYP2D6 (Homo sapiens, UniProt P10635)",
    "observedResult": "Inactive"
  },
  {
    "molecule": "CC(Oc1cc(Cl)c(Cl)cc1Cl)C(=O)O (stereo not drawn)",
    "systemUnderTest": "human CYP2D6 (Homo sapiens, UniProt P10635)",
    "observedResult": "Inactive"
  }
]

Query :: Notebook entry, human CYP2D6 (Homo sapiens, UniProt P10635) assay: CYP2D6 AC50 (half-maximal activity concentration) of COc1cccc(O)c1 = ?
Result :: Inactive

Query :: Notebook entry, human CYP2D6 (Homo sapiens, UniProt P10635) assay: CYP2D6 AC50 (half-maximal activity concentration) of BrC(Br)C(Br)(Br)Br = ?
Result :: Inconclusive inhibitor

Query :: Notebook entry, human CYP2D6 (Homo sapiens, UniProt P10635) assay: CYP2D6 AC50 (half-maximal activity concentration) of CCN(CC)c1ccc(C=O)c(O)c1 = ?
Result :: Inactive

Query :: Notebook entry, human CYP2D6 (Homo sapiens, UniProt P10635) assay: CYP2D6 AC50 (half-maximal activity concentration) of CC(=O)[C@H]1[C@H](C#N)C[C@H]2[C@@H]3CC=C4C[C@@H](O)CC[C@]4(C)[C@H]3CC[C@@]21C = ?
Result :: Inactive

Query :: Notebook entry, human CYP2D6 (Homo sapiens, UniProt P10635) assay: CYP2D6 AC50 (half-maximal activity concentration) of C=Cc1ccc(S(=O)(=O)[O-])cc1.[Na+] [Sodium 4-vinylbenzenesulfonate] = ?
Result :: Inactive

Query :: Notebook entry, human CYP2D6 (Homo sapiens, UniProt P10635) assay: CYP2D6 AC50 (half-maximal activity concentration) of CCOC(=O)C1OC1(C)c1ccccc1 (stereo not drawn) [Ethyl methylphenylglycidate] = ?
Result :: Inconclusive inhibitor

---

Each record here notes measured CYP2C9 Efficacy (in parenthesis).
Molecular target: human CYP2C9 (Homo sapiens, UniProt P11712)
Sequence (P11712 whole entry): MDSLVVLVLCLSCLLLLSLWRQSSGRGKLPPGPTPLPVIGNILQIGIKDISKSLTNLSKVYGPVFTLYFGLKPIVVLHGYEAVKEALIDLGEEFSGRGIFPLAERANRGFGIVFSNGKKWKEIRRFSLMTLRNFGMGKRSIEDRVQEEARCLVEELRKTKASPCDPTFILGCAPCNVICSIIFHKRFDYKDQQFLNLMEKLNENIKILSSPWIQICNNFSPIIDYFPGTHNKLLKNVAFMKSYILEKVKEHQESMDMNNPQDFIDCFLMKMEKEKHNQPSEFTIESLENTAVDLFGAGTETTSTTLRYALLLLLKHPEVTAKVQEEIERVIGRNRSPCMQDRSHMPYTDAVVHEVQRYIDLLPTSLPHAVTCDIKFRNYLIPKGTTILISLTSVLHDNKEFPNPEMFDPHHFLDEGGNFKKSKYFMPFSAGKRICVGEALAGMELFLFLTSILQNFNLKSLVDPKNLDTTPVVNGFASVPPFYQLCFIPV

Consider the worked cases shown below.
[
  {
    "compound": "Cc1cc(CCC(=O)OCCOCCOCCOC(=O)CCc2cc(C)c(O)c(C(C)(C)C)c2)cc(C(C)(C)C)c1O",
    "systemUnderTest": "human CYP2C9 (Homo sapiens, UniProt P11712)",
    "CYP2C9 Efficacy (in parenthesis)": "0.55 ± 0.06 (-101 ± 5) %"
  },
  {
    "compound": "Cc1ccc([N+](=O)[O-])[c]2c1[O][Hg]2",
    "systemUnderTest": "human CYP2C9 (Homo sapiens, UniProt P11712)",
    "CYP2C9 Efficacy (in parenthesis)": "0.87 ± 0 (-104 ± 2) %"
  },
  {
    "compound": "C=CCOC(Cn1ccnc1)c1ccc(Cl)cc1Cl.O=S(=O)(O)O (stereo not shown) [Imazalil sulfate]",
    "systemUnderTest": "human CYP2C9 (Homo sapiens, UniProt P11712)",
    "CYP2C9 Efficacy (in parenthesis)": "0.63 ± 0.18 (-107 ± 5) %"
  }
]

Query :: Notebook entry, human CYP2C9 (Homo sapiens, UniProt P11712) assay: CYP2C9 Efficacy (in parenthesis) of COP(=S)(NC(C)C)Oc1ccc(C)cc1[N+](=O)[O-] (stereo not shown) = ?
Result :: 2.74 ± 0.38 (-109 ± 3) %

---

Target: human CYP2C9 (Homo sapiens, UniProt P11712)
Experiment: biochemical
Conditions: CYP2C9 IC50 (half-maximal inhibitory concentration)
Counter-ions that a name gives are not always drawn.
readoutName: log10 IC50 (log10 of the value in µM)
Heads up: the numbers are on a log10 scale; they represent IC50 in µM.

[
  {
    "compound": "CC(COc1ccccc1)NC(C)C(O)c1ccc(O)cc1 (stereo not shown) [Isoxsuprine hydrochloride]",
    "observedResult": 1.17
  },
  {
    "compound": "Clc1ccc(C2(Cn3cncn3)OCCO2)c(Cl)c1",
    "observedResult": 1.19
  }
]

Query :: What value of log10 IC50 has been reported for the following compound? COC(=O)c1c(C(F)F)nc(C(F)(F)F)c(C2=NCCS2)c1CC(C)C
Result :: 1.54

Query :: What value of log10 IC50 has been reported for the following compound? Clc1ccccc1C(c1ccccc1)(c1ccccc1)n1ccnc1
Result :: 0.06

Query :: What value of log10 IC50 has been reported for the following compound? C=CCOC(Cn1ccnc1)c1ccc(Cl)cc1Cl (stereo not shown)
Result :: -0.11

Query :: What value of log10 IC50 has been reported for the following compound? O=S(=O)(Oc1ccc(Cl)cc1Cl)c1ccccc1 [2,4-Dichlorophenyl benzenesulfonate]
Result :: 1.59

Query :: What value of log10 IC50 has been reported for the following compound? O[Si](c1ccccc1)(c1ccccc1)c1ccccc1
Result :: -0.28

Query :: What value of log10 IC50 has been reported for the following compound? Cc1c(O)cccc1C(=O)N[C@@H](CSc1ccccc1)[C@H](O)CN1C[C@H]2CCCC[C@H]2C[C@H]1C(=O)NC(C)(C)C [Nelfinavir mesylate]
Result :: 1.28

Query :: What value of log10 IC50 has been reported for the following compound? CC(C)=CCOc1c2occc2cc2ccc(=O)oc12
Result :: -0.21

Query :: What value of log10 IC50 has been reported for the following compound? O=C(NCCc1c[nH]c2ccccc12)c1cccnc1
Result :: 1.18

---

Target: UniProt:P10635
Test: biochemical
readoutName: IC50 (µM)
Return type: number; implicit unit µM.

Query :: What value of IC50 has been reported for the following compound? CCOP(=S)(OCC)SCCS(=O)(=O)CC [Disulfoton sulfone]
Result :: 13.4

---

Molecular target: CYP3A4 (Homo sapiens, UniProt P08684)
Sequence (P08684 whole entry): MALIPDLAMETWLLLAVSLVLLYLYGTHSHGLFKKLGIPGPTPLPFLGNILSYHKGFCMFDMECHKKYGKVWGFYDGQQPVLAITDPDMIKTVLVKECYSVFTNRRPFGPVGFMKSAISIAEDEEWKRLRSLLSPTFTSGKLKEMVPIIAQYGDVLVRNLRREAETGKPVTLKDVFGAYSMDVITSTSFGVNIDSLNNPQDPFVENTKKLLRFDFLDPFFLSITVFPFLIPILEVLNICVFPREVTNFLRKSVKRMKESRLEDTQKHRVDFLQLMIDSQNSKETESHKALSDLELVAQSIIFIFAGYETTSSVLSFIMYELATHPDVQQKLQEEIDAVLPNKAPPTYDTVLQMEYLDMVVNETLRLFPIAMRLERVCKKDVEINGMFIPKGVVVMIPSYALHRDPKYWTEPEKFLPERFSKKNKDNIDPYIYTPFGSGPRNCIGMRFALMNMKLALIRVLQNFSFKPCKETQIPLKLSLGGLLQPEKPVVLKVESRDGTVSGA
Test: biochemical
readoutName: AC50 (µM)
Return type: number; implicit unit µM.

[
  {
    "molecule": "CN(CC1(C)CCCO1)S(=O)(=O)c1ccc(Cl)c(S(N)(=O)=O)c1 (stereo not drawn) [Mefruside]",
    "observedResult": 15.8
  },
  {
    "molecule": "O=C1c2ccccc2-c2ccccc21",
    "observedResult": 10.4
  }
]

// next entry
Query :: Notebook entry, CYP3A4 (Homo sapiens, UniProt P08684) assay: AC50 of CCc1c(C(=O)NN2CCCCC2)nn(-c2ccc(Cl)cc2Cl)c1-c1ccc(Br)cc1 = ?
Result :: 4.12

---

Each record here notes measured AC50.
Target: UniProt:P05177
Sequence (P05177 whole entry): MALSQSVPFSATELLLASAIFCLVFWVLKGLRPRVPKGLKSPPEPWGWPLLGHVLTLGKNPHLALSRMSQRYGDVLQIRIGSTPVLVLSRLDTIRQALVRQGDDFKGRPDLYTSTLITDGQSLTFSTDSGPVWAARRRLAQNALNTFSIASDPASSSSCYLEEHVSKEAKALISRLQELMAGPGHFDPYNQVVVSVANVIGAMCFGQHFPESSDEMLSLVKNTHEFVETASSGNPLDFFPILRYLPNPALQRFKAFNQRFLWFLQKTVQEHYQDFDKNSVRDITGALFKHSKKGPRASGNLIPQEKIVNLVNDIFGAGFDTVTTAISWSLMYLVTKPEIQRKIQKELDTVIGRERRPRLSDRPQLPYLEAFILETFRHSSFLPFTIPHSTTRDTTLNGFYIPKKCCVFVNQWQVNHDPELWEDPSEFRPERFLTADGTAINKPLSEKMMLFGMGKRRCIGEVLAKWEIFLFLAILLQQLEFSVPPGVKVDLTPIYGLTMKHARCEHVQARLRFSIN
Test: biochemical
Conditions: CYP1A2 AC50 (half-maximal activity concentration)
Where a name gives a salt, the structure may show the parent alone.
Return type: number; implicit unit µM.

[
  {
    "molecule": "O=C(NC(=O)c1c(F)cccc1F)Nc1cc(Cl)c(OC(F)(F)C(F)C(F)(F)F)cc1Cl (stereo not drawn)",
    "AC50 (µM)": 35.7
  },
  {
    "molecule": "CCCCC(CC)COP(=O)(O)OCC(CC)CCCC (stereo not drawn) [Bis(2-ethylhexyl) phosphate]",
    "AC50 (µM)": 82.9
  }
]

Query :: What value of AC50 has been reported for the following molecule? O=C1c2ccccc2C(=O)C1C(=O)C(c1ccccc1)c1ccc(Cl)cc1 (stereo not drawn)
Result :: 8.52

Query :: What value of AC50 has been reported for the following molecule? CC(CCc1ccccc1)NC(C)C(O)c1ccc(O)cc1 (stereo not drawn)
Result :: 13.6

Query :: What value of AC50 has been reported for the following molecule? O=C(OCc1ccccc1)c1ccccc1 [Benzyl benzoate]
Result :: 14.9

Query :: What value of AC50 has been reported for the following molecule? N#CCCC(Br)(C#N)CBr (stereo not drawn)
Result :: 14.6

Query :: What value of AC50 has been reported for the following molecule? COc1ccc(C(=O)c2ccc(C)cc2)c(O)c1
Result :: 16.1

Query :: What value of AC50 has been reported for the following molecule? O=C(Oc1ccccc1)c1ccccc1C(=O)Oc1ccccc1 [Diphenyl phthalate]
Result :: 4.94

Query :: What value of AC50 has been reported for the following molecule? Oc1cc(Cl)ccc1Cl
Result :: 33.9

Query :: What value of AC50 has been reported for the following molecule? O=C(C=Cc1ccccc1)OCC=Cc1ccccc1 [3-Phenyl-2-propen-1-yl 3-phenylacrylate]
Result :: 25.3

Query :: What value of AC50 has been reported for the following molecule? COC(=O)CCCCCCCCC(=O)OC [Dimethyl decanedioate]
Result :: 40.1

Query :: What value of AC50 has been reported for the following molecule? CCOCCOC(=O)C=Cc1ccc(OC)cc1 [Cinoxate]
Result :: 7.48

Query :: What value of AC50 has been reported for the following molecule? Brc1ccc(Oc2ccc(Br)cc2Br)c(Br)c1
Result :: 16.8

Query :: What value of AC50 has been reported for the following molecule? O=C(Cc1ccccc1)c1ccccc1
Result :: 12.6

Query :: What value of AC50 has been reported for the following molecule? CCN(CCCc1ccccc1)CCCc1ccccc1 [Alverine citrate]
Result :: 9.92

Query :: What value of AC50 has been reported for the following molecule? O=[N+]([O-])c1ccccc1CCl [2-Nitrobenzyl chloride]
Result :: 56.1

Cited source: paper PMC12155096
